System: Kochia (Kochia scoparia)
protocol_text: Test A preemergence
Type: in vivo
condition_label: 125 g ai/ha, Preemergence; visual injury after approximately 10 d; 0 to 100 scale where 0 is no effect and 100 is complete control
Description: […]
endpoint_label: Plant response rating, Kochia

Some solved cases for reference:
>>> df
                                   molecule                 endpoint_label  endpoint_value
0  CN1CC(c2ccc(Br)cc2)C(C(=O)Nc2ccccc2S(C)(=O)=O)C1=O (stereo not shown) [Compound 565]  Plant response rating, Kochia              70
1  CN1CC(c2cccc(C(F)(F)F)c2)C(C(=O)Nc2ccccc2S(C)(=O)=O)C1=O (stereo not shown) [Compound 637]  Plant response rating, Kochia              40
2  O=C1NCC(c2ccnc(C(F)(F)F)c2)C1C(=O)Nc1cccc(F)c1F (racemic) [Compound 514]  Plant response rating, Kochia               0

Batch of 6 molecules: report Plant response rating, Kochia for each.
1. O=C(Nc1cccc(F)c1F)C1C(=O)N(CC=CCl)CC1c1cccc(C(F)(F)F)c1 (stereo not shown) [Compound 485]
2. Cc1cccc(C2CN(C)C(=O)C2C(=O)Nc2cccc(F)c2F)c1 (stereo not shown) [Compound 667]
3. Cc1ccc(C2CNC(=O)C2C(=O)Nc2ccccc2S(C)(=O)=O)c(F)c1 (racemic) [Compound 507]
4. Cc1ccc(C2CNC(=O)C2C(=O)Nc2cccc(F)c2F)cc1C(F)(F)F (racemic) [Compound 679]
5. CN1CC(c2ccc(C(F)(F)F)cc2)C(C(=O)Nc2ccccc2S(C)(=O)=O)C1=O (stereo not shown) [Compound 624]
6. O=C1NCC(c2ccc(Oc3ccccc3)cc2)C1C(=O)Nc1ccc(F)c(F)c1F (racemic) [Compound 537]

RESULT:
1: 0; 2: 40; 3: 0; 4: 30; 5: 40; 6: 0

Batch of 5 molecules: report Plant response rating, Kochia for each.
1. CC(C)Oc1cccc(C2CN(C)C(=O)C2C(=O)Nc2ccccc2C(F)(F)F)c1 (stereo not shown) [Compound 652]
2. Cc1ccc(C2CNC(=O)C2C(=O)Nc2ccccc2F)cc1C(F)(F)F (racemic) [Compound 678]
3. CC(C)Oc1cccc(C2CN(C)C(=O)C2C(=O)Nc2ccccc2F)c1 (stereo not shown) [Compound 650]
4. CCc1cccc(C2CN(C)C(=O)C2C(=O)Nc2ccccc2F)c1 (stereo not shown) [Compound 567]
5. CN1CC(c2ccc(C(C)(F)F)cc2)C(C(=O)Nc2ccccc2F)C1=O (stereo not shown) [Compound 691]

RESULT:
1. 0
2. 0
3. 30
4. 60
5. 80

Batch of 2 molecules: report Plant response rating, Kochia for each.
1. NS(=O)(=O)c1ccccc1NC(=O)C1C(=O)NCC1c1cccc(C(F)(F)F)c1 (stereo not shown) [Compound 634]
2. O=C1NCC(c2cccc(Br)c2)C1C(=O)Nc1cccc(F)c1F (racemic) [Compound 688]

RESULT:
1: 0; 2: 30

====

Test system: velvetleaf (Abutilon theophrasti)
protocol_text: Test G Post-Emergence Protocol
Type: in vivo
condition_label: Abutilon theophrasti, post-emergence, 312 h, 62.5 g ai/ha, evaluated after 13 days, 100=total damage to plant, 0=no damage to plant, read-out: Velvetleaf damage rating
I'd appreciate it if you could supply pest or weed control at 62.5 g/ha values for the items below.
Answers are plain numbers, in %.

Some solved cases for reference:
In [3]: df
Out[3]:
                                   compound                     endpoint_label  endpoint_value
0  CN1C[C@H](c2cccc(C(F)F)c2)[C@@H](C(=O)Nc2ccccc2S(C)(=O)=O)C1=O (racemic)  pest or weed control at 62.5 g/ha               0
1  COc1ccc(C2CN(C)C(=O)C2C(=O)Nc2cccc(F)c2F)cc1C (centres unmarked)  pest or weed control at 62.5 g/ha               0
2  COC(=O)c1cc([C@H]2CN(C)C(=O)[C@@H]2C(=O)Nc2cccc(F)c2F)ccc1F (racemic)  pest or weed control at 62.5 g/ha               0

Batch of 4 compounds: report pest or weed control at 62.5 g/ha for each.
1. Cc1cc([C@H]2CN(C)C(=O)[C@@H]2C(=O)Nc2ccc(F)c(F)c2F)cnn1 (racemic)
2. COCCOc1cccc([C@@H]2CN(C)C(=O)[C@H]2C(=O)Nc2cccc(F)c2C)c1 (racemic)
3. CON1C[C@@H](c2cccc(C(F)(F)F)c2)[C@H](C(=O)Nc2cccc(F)c2F)C1=O (racemic)
4. CN1C[C@H](c2ccc(C(F)(F)F)cc2)[C@@H](C(=O)Nc2cccc(Cl)c2S(C)(=O)=O)C1=O (racemic)

RESULT:
1: 0; 2: 0; 3: 10; 4: 0

Batch of 5 compounds: report pest or weed control at 62.5 g/ha for each.
1. Cc1c(F)cccc1NC(=O)[C@@H]1C(=O)N(C)C[C@H]1c1cccc(OCC2CC2)c1 (racemic)
2. CN1C[C@H](c2ccc(C#N)c(C(F)(F)F)c2)[C@@H](C(=O)Nc2ccccc2S(C)(=O)=O)C1=O (racemic)
3. COc1cc(Cl)cc(C2CN(C)C(=O)C2C(=O)Nc2cccc(F)c2F)c1 (centres unmarked)
4. CN1C[C@H](c2ccc(C(F)(F)F)cc2)[C@@H](C(=O)Nc2cccnc2[S+](C)[O-])C1=O (mixture of isomers)
5. CN1C[C@H](c2ccc(C(F)(F)F)cc2)[C@@H](C(=O)Nc2ccc3ncccc3n2)C1=O (racemic)

RESULT:
0
0
20
10
0

Batch of 2 compounds: report pest or weed control at 62.5 g/ha for each.
1. CN1CC(c2cc(F)cc(OCC(F)(F)F)c2)C(C(=O)Nc2cccc(F)c2F)C1=O (centres unmarked)
2. Cc1c(F)cccc1NC(=O)[C@@H]1C(=O)N(C)C[C@H]1c1cccc(OCC(F)(F)F)c1 (racemic)

RESULT:
10
40
